These measurements were taken from PubChem BioAssay AID463173.

# System: DeltatarO mutant
# assay method text: S. aureus survival, RN4220 and DeltatarO strains – OD600, teichoic acid synthesis inhibitors, primary screen (AID 463173)
# experimental parameters: S. aureus RN4220 wild type/DeltatarO growth, OD600, 18 h, stronger effect = lower value, screened at 18.75 µg/mL (by protocol)
The whole screen tested about 52,000 compounds, of which about 4,300 (8.3%) were called active. For the sample, actives were picked, then their nearest neighbours and some compounds at random.
test readout: survival (%)

INSERT INTO measurements (compound, value) VALUES
  ('Cc1ccc(NC(=O)CSc2nc(=O)n(Cc3cccnc3)c3c2CCC3)cc1F', 67),
  ('C=Cn1c(=N)n(C)c2ccccc21', 70),
  ('COc1ccc(CNC(=O)c2ccc(NC(=O)N3CCSc4ccccc43)cc2)cc1', 56),
  ('COc1ccc(NC(=O)c2c(N)c(C(=O)c3ccc(C)cc3)n3ccccc23)cc1OC', 82),
  ('CCOc1ccc(NC(=O)CSc2ncc3c(n2)-c2cc(Cl)ccc2N(C)S3(=O)=O)cc1', 0),
  ('COCCNC(=O)c1ccc2c(=O)n(CCOC)c(SCC(=O)c3c[nH]c4ccccc34)nc2c1', 17),
  ('O=C(Nc1cccc(-c2nc3ccccc3o2)c1)C(F)(F)F', 61),
  ('Cc1ccc(-c2nnc(SCC(=O)NCCC(C)C)nc2-c2ccc(C)cc2)cc1', 104),
  ('Cc1cccc(OCc2nnc(SC(C)C(=O)O)n2Cc2ccccc2)c1 (stereo not given)', 103),
  ('O=C(Nc1ccc2oc(-c3cccnc3)nc2c1)c1ccc(-c2cccc(Cl)c2)o1', 50),
  ('COc1ccc(/C=C/c2nc3ccccc3c(=O)n2-c2cccc(C(F)(F)F)c2)cc1', 91),
  ('O=C(Nc1cccc(-c2nc3ccccc3o2)c1)c1ccc(-c2ccc(Br)cc2)o1', 39),
  ('Cc1cccc(-c2noc(-c3ccccc3OCC(=O)Nc3ccc([N+](=O)[O-])cc3)n2)c1', 50),
  ('Cc1c(NC(=O)c2ccc(-c3cccc([N+](=O)[O-])c3)o2)cccc1-c1nc2cc(Cl)ccc2o1', 52),
  ('O=C(Nc1ccc(O)c(-c2nc3ccccc3o2)c1)c1ccc(-c2cccc(Cl)c2)o1', 49),
  ('O=C(Nc1ccc2oc(-c3cccnc3)nc2c1)c1ccc(-c2ccc(Cl)cc2)o1', 73),
  ('CCc1cnc2c(c1SC(C(C)=O)C(=O)N(C)C)c(=O)n(C)c(=O)n2C (stereo not given)', 95),
  ('O=C(Nc1ccc(Cl)c(-c2nc3ccccc3o2)c1)c1ccc(-c2cccc([N+](=O)[O-])c2)o1', 37),
  ('COc1ccc(Br)cc1C(=O)Nc1ccc(-c2nc3cc(Cl)ccc3o2)cc1', 43),
  ('O=C(Nc1ccc2oc(-c3cccnc3)nc2c1)c1ccc(-c2ccccc2)o1', 45);

###

# System: DeltatarO mutant
# assay method text: S. aureus survival, RN4220 and DeltatarO strains – OD600, teichoic acid synthesis inhibitors, primary screen (AID 463173)
# experimental parameters: S. aureus RN4220 wild type/DeltatarO growth, OD600, 18 h, stronger effect = lower value, screened at 18.75 µg/mL (by protocol)
The campaign covered roughly 52,000 compounds. About 4,300 (8.3%) were called active. The full list was thinned out, with actives kept by preference.
Param label: returns Fulfilled when survival < 60%, returns Not fulfilled otherwise, including exact equality.

INSERT INTO results (compound, qualitative_label) VALUES
  ('CCC(Oc1ccccc1F)C(=O)Nc1cc(-c2ccccc2)no1 (configuration not stated)', 'Fulfilled'),
  ('O=C1OC(C(=O)Nc2cc(C(F)(F)F)ccc2Cl)Cc2ccccc21 (configuration not stated)', 'Fulfilled'),
  ('Cc1ccc(-c2cc(NC(=O)C(C)Oc3ccc(C)c(C)c3)on2)cc1 (configuration not stated)', 'Not fulfilled'),
  ('CC(=O)N1C(Nc2ccc(C)cc2)CCN1c1ccccc1 (configuration not stated)', 'Not fulfilled'),
  ('Cc1ccc(-c2cc(NC(=O)C(C)Oc3ccccc3F)on2)cc1 (configuration not stated)', 'Fulfilled'),
  ('CCc1ccccc1NC(=O)C(CC)Oc1ccccc1-c1nnc(-c2ccccc2)o1 (configuration not stated)', 'Fulfilled'),
  ('Cc1ccc(N(CC(=O)NC2CCCC2)C(=O)c2ccc(N3CCCC3)nc2)cc1', 'Not fulfilled'),
  ('CCOC(=O)c1ccccc1NC(=O)COc1ccccc1-c1nnc(-c2ccccc2)o1', 'Fulfilled'),
  ('CCOC(=O)c1cc2occc2n1CCc1ccccc1', 'Not fulfilled'),
  ('CCc1ccc(-c2cn3c(n2)sc2cc(C(=O)NCCC4=CCCCC4)ccc23)cc1', 'Not fulfilled'),
  ('CCC(Oc1ccc(F)cc1)C(=O)Nc1cc(-c2ccc(C)cc2)no1 (configuration not stated)', 'Fulfilled'),
  ('O=C1OC(C(=O)Nc2cccc(Br)c2)Cc2ccccc21 (configuration not stated)', 'Fulfilled'),
  ('COc1cc(C2CC(=O)Nc3ccc4ccccc4c32)ccc1OC(=O)C(C)C (configuration not stated)', 'Not fulfilled'),
  ('O=C(Nc1ccc2oc(-c3ccc4ccccc4c3)nc2c1)c1cccc(Cl)c1Cl', 'Not fulfilled'),
  ('Cc1ccc(CNC(=O)c2cc(-c3ccc(C)c(C)c3)nc3ccccc23)cc1', 'Not fulfilled'),
  ('CCCCN(C)C(=O)CN1C(=O)CCn2nc(-c3cn(C)c4ccccc34)cc21', 'Not fulfilled'),
  ('CCC(Oc1ccccc1-c1nnc(-c2ccccc2)o1)C(=O)Nc1ccc(C(C)=O)cc1 (configuration not stated)', 'Not fulfilled'),
  ('O=C1OC(C(=O)Nc2ccc(Cl)c(C(F)(F)F)c2)Cc2ccccc21 (configuration not stated)', 'Fulfilled'),
  ('Cc1nn(-c2ccccc2)c2sc(C(=O)Nc3ccccc3Br)cc12', 'Fulfilled'),
  ('Cc1cccc(N2CCN(S(=O)(=O)c3ccc4oc(=O)c5ncn(C)c5c4c3)CC2C)c1 (configuration not stated)', 'Not fulfilled');
